Molecular target: T1, cynomolgus monkey KLK5 (cynomolgus monkey, UniProt Q9Y337 67-293 (human entry))
T1 construct: also called cyno KLK5
T1 chain: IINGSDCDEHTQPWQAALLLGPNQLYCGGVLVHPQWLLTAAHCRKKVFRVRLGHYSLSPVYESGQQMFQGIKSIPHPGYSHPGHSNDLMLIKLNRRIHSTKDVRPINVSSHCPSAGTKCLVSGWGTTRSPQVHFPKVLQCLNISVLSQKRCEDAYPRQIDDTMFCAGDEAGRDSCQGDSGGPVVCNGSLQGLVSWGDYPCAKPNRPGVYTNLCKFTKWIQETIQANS
Experiment: SPR, one-armed monovalent antibody
MEASURED_ATTRIBUTE: Kd (pM)
Your answer is read as pM, so omit the unit and give the number.

Check out these entries, answers already filled in.
[
  {
    "BINDER": "OA.hu.10C5.N53V.S34K (antibody, V domains shown, One-armed (OA) monovalent anti-KLK5 antibody with a human IgG1 Fc, with Q38E/Q39K; constant regions and dummy Fc chain not specified) VH: EVQLVESGGGLVQPGGSLRLSCAASGFSLSSYGVTWVRKAPGKGLEWIGYITSVYGVSYYASWAKSRSTISRDTSKNTVYLQMGSLRAEDMAVYYCARENPDYGYAYDAWGQGTTVTVSS VL: AIRMTQSPSSFSASTGDRVTITCQASESISNELKWYQEKPGKAPKLLIYYASTLASGVPSRFSGSGSGTDFTLTISSLQPEDFATYYCAQGFGSSGVENVFGGGTKVEIK",
    "Kd (pM)": 16.2
  },
  {
    "BINDER": "OA.hu.10C5.L5H28.WT (antibody, V domains shown, One-armed (OA) monovalent anti-KLK5 antibody with a human IgG1 Fc, without Q38E/Q39K; constant regions and dummy Fc chain not specified) VH: EVQLVESGGGLVQPGGSLRLSCAASGFSLSSYGVTWVRQAPGKGLEWIGYITSNYGVSYYASWAKSRSTISRDTSKNTVYLQMGSLRAEDMAVYYCARENPDYGYAYDAWGQGTTVTVSS VL: AIRMTQSPSSFSASTGDRVTITCQASESISNELSWYQQKPGKAPKLLIYYASTLASGVPSRFSGSGSGTDFTLTISSLQPEDFATYYCAQGFGSSGVENVFGGGTKVEIK",
    "Kd (pM)": 371
  },
  {
    "BINDER": "OA.hu.10C5.N53V.S34K.F92Y.S95F (antibody, V domains shown, One-armed (OA) monovalent anti-KLK5 antibody with a human IgG1 Fc, with Q38E/Q39K; constant regions and dummy Fc chain not specified) VH: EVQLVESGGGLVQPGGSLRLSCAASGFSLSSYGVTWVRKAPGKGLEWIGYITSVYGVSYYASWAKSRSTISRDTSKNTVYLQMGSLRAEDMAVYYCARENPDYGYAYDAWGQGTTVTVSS VL: AIRMTQSPSSFSASTGDRVTITCQASESISNELKWYQEKPGKAPKLLIYYASTLASGVPSRFSGSGSGTDFTLTISSLQPEDFATYYCAQGYGSFGVENVFGGGTKVEIK",
    "Kd (pM)": 2.65
  },
  {
    "BINDER": "OA.hu.10C5.N53V.S34K.S95F (antibody, V domains shown, One-armed (OA) monovalent anti-KLK5 antibody with a human IgG1 Fc, with Q38E/Q39K; constant regions and dummy Fc chain not specified) VH: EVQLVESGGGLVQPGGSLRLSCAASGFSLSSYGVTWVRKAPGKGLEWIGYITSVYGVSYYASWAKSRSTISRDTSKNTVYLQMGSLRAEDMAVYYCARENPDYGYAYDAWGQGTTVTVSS VL: AIRMTQSPSSFSASTGDRVTITCQASESISNELKWYQEKPGKAPKLLIYYASTLASGVPSRFSGSGSGTDFTLTISSLQPEDFATYYCAQGFGSFGVENVFGGGTKVEIK",
    "Kd (pM)": 3.03
  },
  {
    "BINDER": "OA.hu.10C5.N53V (antibody, V domains shown, One-armed (OA) monovalent anti-KLK5 antibody with a human IgG1 Fc, without Q38E/Q39K; constant regions and dummy Fc chain not specified) VH: EVQLVESGGGLVQPGGSLRLSCAASGFSLSSYGVTWVRQAPGKGLEWIGYITSVYGVSYYASWAKSRSTISRDTSKNTVYLQMGSLRAEDMAVYYCARENPDYGYAYDAWGQGTTVTVSS VL: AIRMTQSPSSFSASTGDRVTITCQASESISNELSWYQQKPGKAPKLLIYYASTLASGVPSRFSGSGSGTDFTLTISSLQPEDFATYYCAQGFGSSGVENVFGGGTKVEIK",
    "Kd (pM)": 35.5
  },
  {
    "BINDER": "OA.hu.10C5.N53V.S34K.F92Y (antibody, V domains shown, One-armed (OA) monovalent anti-KLK5 antibody with a human IgG1 Fc, with Q38E/Q39K; constant regions and dummy Fc chain not specified) VH: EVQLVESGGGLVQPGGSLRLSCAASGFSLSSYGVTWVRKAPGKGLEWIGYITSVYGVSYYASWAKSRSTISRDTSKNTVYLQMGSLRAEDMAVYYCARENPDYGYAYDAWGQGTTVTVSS VL: AIRMTQSPSSFSASTGDRVTITCQASESISNELKWYQEKPGKAPKLLIYYASTLASGVPSRFSGSGSGTDFTLTISSLQPEDFATYYCAQGYGSSGVENVFGGGTKVEIK",
    "Kd (pM)": 5.22
  },
  {
    "BINDER": "OA.hu.10C5.N53V.F92Y (antibody, V domains shown, One-armed (OA) monovalent anti-KLK5 antibody with a human IgG1 Fc, with Q38E/Q39K; constant regions and dummy Fc chain not specified) VH: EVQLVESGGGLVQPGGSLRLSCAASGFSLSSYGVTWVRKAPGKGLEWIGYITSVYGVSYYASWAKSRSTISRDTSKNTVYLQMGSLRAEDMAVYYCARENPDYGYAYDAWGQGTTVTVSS VL: AIRMTQSPSSFSASTGDRVTITCQASESISNELSWYQEKPGKAPKLLIYYASTLASGVPSRFSGSGSGTDFTLTISSLQPEDFATYYCAQGYGSSGVENVFGGGTKVEIK",
    "Kd (pM)": 8.85
  },
  {
    "BINDER": "OA.hu.10C5.N53V.F92Y.S95F (antibody, V domains shown, One-armed (OA) monovalent anti-KLK5 antibody with a human IgG1 Fc, with Q38E/Q39K; constant regions and dummy Fc chain not specified) VH: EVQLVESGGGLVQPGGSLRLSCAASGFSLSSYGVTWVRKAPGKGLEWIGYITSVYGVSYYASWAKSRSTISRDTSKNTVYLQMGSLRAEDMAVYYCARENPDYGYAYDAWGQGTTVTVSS VL: AIRMTQSPSSFSASTGDRVTITCQASESISNELSWYQEKPGKAPKLLIYYASTLASGVPSRFSGSGSGTDFTLTISSLQPEDFATYYCAQGYGSFGVENVFGGGTKVEIK",
    "Kd (pM)": 3.76
  }
]

Ask | // query Kd value for entry OA.hu.10C5.N53V.S95F (antibody, V domains shown, One-armed (OA) monovalent anti-KLK5 antibody with a human IgG1 Fc, with Q38E/Q39K; constant regions and dummy Fc chain not specified) VH: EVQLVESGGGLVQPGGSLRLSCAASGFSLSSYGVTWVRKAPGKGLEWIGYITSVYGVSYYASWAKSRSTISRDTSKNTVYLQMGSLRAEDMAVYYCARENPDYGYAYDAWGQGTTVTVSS VL: AIRMTQSPSSFSASTGDRVTITCQASESISNELSWYQEKPGKAPKLLIYYASTLASGVPSRFSGSGSGTDFTLTISSLQPEDFATYYCAQGFGSFGVENVFGGGTKVEIK
Reply | 7.44

All figures here come from patent US20240084042A1.
